- Tested on: ATP;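 note: ATP exposure 15 min at 22 °C before imaging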
- method.summary: switch fluorescence ratio, 500 uM ATP over buffer (Cy3 cluster intensity, sum of 5 cycles each) (fold (ratio)); higher = stronger signal-on switching upon ATP binding; sequences stand for … in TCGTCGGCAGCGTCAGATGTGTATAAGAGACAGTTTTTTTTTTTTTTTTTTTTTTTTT…TC
- setup.conditions: aptamer strand: ATP DNA aptamer (quencher-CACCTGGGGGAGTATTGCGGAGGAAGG + anchor), 100 nM annealed; ATP concentration: 500 uM
measured.metric: switch fluorescence ratio

query.sequence: AGGTGCTCAT
target.or.system: ATP;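 note: ATP exposure 15 min at 22 °C before imaging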
reading: 1.02

query.sequence: AATCTGTTCG
target.or.system: ATP;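 note: ATP exposure 15 min at 22 °C before imaging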
reading: 0.971

query.sequence: CATAGCTGTG
target.or.system: ATP;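 note: ATP exposure 15 min at 22 °C before imaging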
reading: 1.01

query.sequence: TTCGACATGT
target.or.system: ATP;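 note: ATP exposure 15 min at 22 °C before imaging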
reading: 1.03

query.sequence: CAGGATACGC
target.or.system: ATP;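 note: ATP exposure 15 min at 22 °C before imaging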
reading: 1.21

query.sequence: CTATGAGTTT
target.or.system: ATP;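 note: ATP exposure 15 min at 22 °C before imaging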
reading: 0.993

query.sequence: ATTCTACGGA
target.or.system: ATP;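 note: ATP exposure 15 min at 22 °C before imaging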
reading: 1.02

query.sequence: GCAGGTTCGG
target.or.system: ATP;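 note: ATP exposure 15 min at 22 °C before imaging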
reading: 1.01

query.sequence: CACCCTACTA
target.or.system: ATP;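 note: ATP exposure 15 min at 22 °C before imaging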
reading: 1.29

query.sequence: GATGTTCGAG
target.or.system: ATP;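 note: ATP exposure 15 min at 22 °C before imaging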
reading: 0.991

query.sequence: AAAAATCTCT
target.or.system: ATP;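 note: ATP exposure 15 min at 22 °C before imaging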
reading: 1.02

query.sequence: GGGCATTGCG
target.or.system: ATP;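 note: ATP exposure 15 min at 22 °C before imaging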
reading: 0.967

query.sequence: AACCAAAAAA
target.or.system: ATP;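 note: ATP exposure 15 min at 22 °C before imaging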
reading: 1.01

query.sequence: ATGTTGGGAC
target.or.system: ATP;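 note: ATP exposure 15 min at 22 °C before imaging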
reading: 1.02

query.sequence: TTACCTTTCT
target.or.system: ATP;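 note: ATP exposure 15 min at 22 °C before imaging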
reading: 1.64

query.sequence: GAGTAATCGG
target.or.system: ATP;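 note: ATP exposure 15 min at 22 °C before imaging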
reading: 1.01

* * *

Examples of sequences with documented switch fluorescence ratio follow.
- Test system: ATP;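 note: ATP exposure 15 min at 22 °C before imaging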
- method.summary: switch fluorescence ratio, 500 uM ATP over buffer (Cy3 cluster intensity, sum of 5 cycles each) (fold (ratio)); higher = stronger signal-on switching upon ATP binding; sequences stand for … in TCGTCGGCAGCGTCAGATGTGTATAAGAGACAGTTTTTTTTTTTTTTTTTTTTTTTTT…TC
- setup.conditions: aptamer strand: ATP DNA aptamer (quencher-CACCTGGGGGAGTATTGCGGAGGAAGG + anchor), 100 nM annealed; ATP concentration: 500 uM

query.sequence: TAAGGTGGTT
switch fluorescence ratio: 0.976

query.sequence: TACAGAATGT
switch fluorescence ratio: 1.03

query.sequence: GGGAAAGTGG
switch fluorescence ratio: 1.01

query.sequence: CGGTGGGCCG
switch fluorescence ratio: 1.05

query.sequence: AAGTCTTGTT
switch fluorescence ratio: 0.976

query.sequence: GGGGTTTAGT
switch fluorescence ratio: 1.01

* * *

- System: ATP;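 note: ATP exposure 15 min at 22 °C before imaging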
- method.summary: switch fluorescence ratio, 500 uM ATP over buffer (Cy3 cluster intensity, sum of 5 cycles each) (fold (ratio)); higher = stronger signal-on switching upon ATP binding; sequences stand for … in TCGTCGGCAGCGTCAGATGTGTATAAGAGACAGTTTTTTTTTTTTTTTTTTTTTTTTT…TC
- setup.conditions: aptamer strand: ATP DNA aptamer (quencher-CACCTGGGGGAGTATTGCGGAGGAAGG + anchor), 100 nM annealed; ATP concentration: 500 uM
measured.metric: switch fluorescence ratio

query.sequence: ATGTAGTTCC
measured.metric: switch fluorescence ratio
reading: 1.06
--
query.sequence: GCGAGGGAGT
measured.metric: switch fluorescence ratio
reading: 1.02
--
query.sequence: GAGCAAGGTT
measured.metric: switch fluorescence ratio
reading: 1.24
--
query.sequence: TAAGTGGGTT
measured.metric: switch fluorescence ratio
reading: 0.992
--
query.sequence: ATGATGTGGA
measured.metric: switch fluorescence ratio
reading: 1.01
--
query.sequence: TGGTCCTAGT
measured.metric: switch fluorescence ratio
reading: 0.975
--
query.sequence: TTATAGTTAT
measured.metric: switch fluorescence ratio
reading: 1
--
query.sequence: TGATATGTTT
measured.metric: switch fluorescence ratio
reading: 1.01
--
query.sequence: TTTTTACCGA
measured.metric: switch fluorescence ratio
reading: 1.01
--
query.sequence: GGAGGGAGGT
measured.metric: switch fluorescence ratio
reading: 1.01
--
query.sequence: AAGGGGGATC
measured.metric: switch fluorescence ratio
reading: 1
--
query.sequence: TCCAAAGAGA
measured.metric: switch fluorescence ratio
reading: 0.97
--
query.sequence: TTTAGGGGGA
measured.metric: switch fluorescence ratio
reading: 1.01
--
query.sequence: CCGTTGAGTC
measured.metric: switch fluorescence ratio
reading: 1.06
--
query.sequence: AGTGTAATGC
measured.metric: switch fluorescence ratio
reading: 1.15
--
query.sequence: TAGAAATTTG
measured.metric: switch fluorescence ratio
reading: 0.998
--
query.sequence: TGGGGCCCGA
measured.metric: switch fluorescence ratio
reading: 1.02
--
query.sequence: AAAGGAGCGT
measured.metric: switch fluorescence ratio
reading: 0.992
--
query.sequence: GTTGTGGTTA
measured.metric: switch fluorescence ratio
reading: 1.02
--
query.sequence: GGTTTGAGGG
measured.metric: switch fluorescence ratio
reading: 0.985
--
query.sequence: AAGTGAAAGC
measured.metric: switch fluorescence ratio
reading: 1.01
--
query.sequence: GCGGGGGGCC
measured.metric: switch fluorescence ratio
reading: 1.05
--
query.sequence: TTATGTATGT
measured.metric: switch fluorescence ratio
reading: 0.996
--
query.sequence: TAGGGAAAAC
measured.metric: switch fluorescence ratio
reading: 1.05
--
query.sequence: CTTGAAAAGC
measured.metric: switch fluorescence ratio
reading: 1.05
--
query.sequence: CGAACTCGGA
measured.metric: switch fluorescence ratio
reading: 1.01
--
query.sequence: TGAGGGTCGG
measured.metric: switch fluorescence ratio
reading: 0.972
--
query.sequence: CATTTTTTTG
measured.metric: switch fluorescence ratio
reading: 1
--
query.sequence: AATGAAAAGT
measured.metric: switch fluorescence ratio
reading: 0.992
--
query.sequence: AGAGCGTTGT
measured.metric: switch fluorescence ratio
reading: 0.977
--
query.sequence: GACTGGGCAG
measured.metric: switch fluorescence ratio
reading: 1.01
